All values here come from patent US20170182124A1.

Test: Pharmacokinetic study in mini pigs (i.v.)
Settings: terminal half-life, female Gottingen mini pigs
Half-life mini pigs listing for selected molecules.
Your answer is read as h, so omit the unit and give the number.

# molecule, Half-life mini pigs / h
records = [
    ("S{Beta-181}-[2-[2-[[2-[2-[2-[[2-[2-[2-[[(4S)-4-carboxy-4-(17-carboxyheptadecanoyl-amino)butanoyl]amino]ethoxy]ethoxy]acetyl]amino]ethoxy]ethoxy]acetyl]amino]-ethylamino]-2-oxoethyl]-Ala[Gln121,Leu168, … (protein) HPIPDSSPLLQFGGQVRQRYLYTDDAQQTEAHLEIREDGTVGGAADQSPESLLQLKALKPGVIQILGVKTSRFLCQRPDGALYGSLHFDPEACSFRELLLEDGYNVYQSEAHGLPLHLPGQKSPHRDPAPRGPARFLPLPGLPPALPEPPGILAPQPPDVGSSDPLSLVGPSQGRSPSYAC", 85),
]

// next item, Half-life mini pigs requested
-- ask Would you kindly share the measured Half-life mini pigs for S{Beta-181}-[2-[2-[[2-[2-[2-[[2-[2-[2-[[(4S)-4-carboxy-4-(15-carboxypentadecanoyl-amino)butanoyl]amino]ethoxy]ethoxy]acetyl]amino]ethoxy]ethoxy]acetyl]amino]-ethylamino]-2-oxoethyl]-Ala[Gln121,Leu168, … (protein) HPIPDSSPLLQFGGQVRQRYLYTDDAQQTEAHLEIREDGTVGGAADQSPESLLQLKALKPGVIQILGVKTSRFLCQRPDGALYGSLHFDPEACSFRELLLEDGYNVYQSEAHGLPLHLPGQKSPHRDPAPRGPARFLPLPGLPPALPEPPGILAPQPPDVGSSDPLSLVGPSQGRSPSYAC ?
-- reply 25
